Assay: yeast display, Sf9 membrane polyspecificity reagent, FACS + sequencing; frameworks hold sequencing errors
measurement-type: polyreactivity (PSR sort gate)

As a guide, the following entries are already answered.
sequence-input	polyreactivity (PSR sort gate)
QVQLVESGGGLVQAGGSLRLSCAASGLTFSINAMGWYIQAPGKERELVAAISRSGGRTYYADSVKGRFTISRDNAKNTVYLQMNSLKPEDTAVYYCAADKTQSHYDYWGQGTQVTVSS	high polyreactivity
QVQLVESGGGLVQAGGSLRLSCAASGSIFYTNVRGWYRQAPGKAREFVAAITGGGGSTYYADSVKGRFTISRDNAKNTVYLQMNSLKPEDTAVYYCATKAKPRSGYNYWGQGTQVTVSS	low polyreactivity
QVQVVESGGGLVQAGGSLRLSCAASGRIFYTNAMGWYRQAPGKERELVAVISWGGDTTYYADSVKGRFTISRDKAKNTVYLQMNSLKPEDTAVYYCNADWGPTYEIYDSWGQGTQVTVSS	low polyreactivity
QVQLVESVGGLVQAGGSLRISSAASGRIFTGNGMGWYRQAPGKERELVASITYNGGRTYYADSVKGRFTISRDNAKNTVYLQINSLKPEDTSVYYCNAGDYGFRYEYWGQGTQVTVSS	low polyreactivity

**Query** Recall and state the measured polyreactivity (PSR sort gate) for QVQLVESGGGLVQAGGSLRLSCADSGNTFPSYVMGWYRQAPGKERELVAAINRGGGTYYADSVKGRFTISRDNAKNTVYLQMNSLKPEDTAVYYCAVRYQRHPNMDYWGQGTQVTVSS .
**Result** low polyreactivity

* * *

Assay: yeast display, Sf9 membrane polyspecificity reagent, FACS + sequencing; frameworks hold sequencing errors
measurement-type: polyreactivity (PSR sort gate)

As a guide, the following entries are already answered.
sequence-input	polyreactivity (PSR sort gate)
QVQLVESGGGLVQAGGSLRLSCAASGSTFQLYAMGWYRPPPGTERELVAGISRDGSTYYADSVKARFSISRDNSKNTVYLQMNSLKPEDTAVYYCAAKYYGNKRDLYYWGQGTQVTVSS	low polyreactivity
QVQLVESGGGLVQAGGSLRLSCAASGIIFDQNVMGWYRQAPGKERELVAAIRQTGGSTYYADSVKGRFTISRDNAKNTVYLQMNSLKPEDTAVYYCNAKPPGWFWGGFSYNRYYYWGQGTQVTVSS	low polyreactivity
QVQLVESGGGLVQAGGSLRLSCAASGSILYIYAMGWYRQAPGKVRELVAAITGSGGTTNYADSVKGRFTISRDNAKNTVYLQMNSLKPEDTAVYYCNIGSYYSCYDFWGQGTQVTVSS	low polyreactivity
QVQLVESGGGLVQAGGSLRLSCAASGRIFKVYAMGWYRQAPGKERELVAAISSRGGSTYYADSVKGRFTISRDNAKNTVYLQMNSLKPEDTAVYYCAALVTWLHPKGDYWGQGTQVTVSS	high polyreactivity

**Query** Recall and state the measured polyreactivity (PSR sort gate) for QVQLVESGGGLVQAGGSLRLSCAASGFTFRDYAMGWYRQAPGKERELVAAISRSGDSTYYADSVKGRFTISRDNAKNTVYLQMNSLKPEDTAVYDYAAKRRYTTYDYWGQGTQVTVSS .
**Result** high polyreactivity

**Query** Recall and state the measured polyreactivity (PSR sort gate) for QVQLVESGGGLDQAGRSLRLSFAASGRTFDLYPMGWYRQAPGKERELVAAITNGETYADSVKGRFTISLDDAKNTVYLQMNSLKPEDTAVYYCAKYDPWFWRAEDYWGQGTQVTVSS .
**Result** low polyreactivity

**Query** Recall and state the measured polyreactivity (PSR sort gate) for QVQLVESGGGLVQAGGSLRLSCAASGLIFRPYAMGWSRQAPGKERELVAAITSGGSTDYADSVKGRFTISRDNAKNTVYLQMNSLKPEDTAVYYCNADIYPHDGYPWQGDYDYWGQGTQVTVSS .
**Result** low polyreactivity

**Query** Recall and state the measured polyreactivity (PSR sort gate) for QVQLVESGGGLVQAGGSLRLSCAASGNIFNEYAMGWYRQAPGKERELVAAITWSAGSTYYADSVKGRFTISRDNAKNTVYLQMNSLKPEDTAVYYCNAEYTWHRGYDYWGQGTQVTVSS .
**Result** low polyreactivity

**Query** Recall and state the measured polyreactivity (PSR sort gate) for QVQLVESGGGSVQAGGSLRLSCAASGSTFVANTMGWYRQAPGKERELVASITSGDSTNYADSVKGRFTISRDNAKNTVYLQMNSLKPEDTAVYYCAAESVWYYVGGQLIYYYWGQGTQVTVSS .
**Result** low polyreactivity

**Query** Recall and state the measured polyreactivity (PSR sort gate) for QVQLVESGGGLVQAGGSLRLSCAASGSIFDSYTMAWYRQEPGKEREFVAAISRGGGSTYYADSVKGRFTISRDNAKNTVYLQMNSLKPEDTAVYYCAASSYLNSRFKFDYWGQGTQVTVSS .
**Result** low polyreactivity

**Query** Recall and state the measured polyreactivity (PSR sort gate) for QVQLVESGGGLVQAGGSLRLSCAASGSTFYYNSMGWYRQAHGKERQLVAAISKSSTRTYYADSVKGRFTISRDNAQNTVYLQMNSLKPEDTAVYYCAARQWRRSRFDYWGQGTQVNVSS .
**Result** high polyreactivity

**Query** Recall and state the measured polyreactivity (PSR sort gate) for QVQLVESGGGLVQAGGSLRVSCAASGRTIRWNAMGWSRQAPGKEREMVAAITSRGGSTYYADSVKGRFTISRDNAKNTVYLQMNSLKPEDTAVYYCAKQPKPPPVTGYDYWGQGTQVTVSS .
**Result** high polyreactivity

**Query** Recall and state the measured polyreactivity (PSR sort gate) for QVQLVESGGGLVQAGGSLRLSCAASGSIFDIYAMAWYRQAPGKERELVADITSGGRTDYADSVKGRFTISRDNGKNTVYLQMNSLKPEDTAVYYCAADYIWDSVYWYISSYDYWGQGTKVTVSS .
**Result** low polyreactivity

**Query** Recall and state the measured polyreactivity (PSR sort gate) for QVQLVESGGGLVQAGGSLRLSCAASGRTSRLYAMGWYRQAPGKERELVATITRSAGDTYYADSVKGRFTISRDNAKNTVYLQMNSLKPEDTAVYYCNARAAKWSRYDYWGQGTQVTVSS .
**Result** high polyreactivity

**Query** Recall and state the measured polyreactivity (PSR sort gate) for QVQLVESGGGLVQAGGSLRLSCAASGSIFRQYAMGWYRQAPGKERELVAAINYSGGNTYYADSVKGRFTISRDNAKNTVYLQMNSLKPEDTAVYYCAADSVRHFWWAYYYWGQGTQVTVSS .
**Result** low polyreactivity

**Query** Recall and state the measured polyreactivity (PSR sort gate) for QVQLVESGGGLVQAGGSLRLSCAASGIIFAYYAMGRSRQAPGKEMEFVAGISCSGSSTNYADSVKGRFTISRDNAKNTVYFQMNSLKPEDTAVYYCAARSRRYHRTKPKYDYWGQGTQVTVSS .
**Result** high polyreactivity

**Query** Recall and state the measured polyreactivity (PSR sort gate) for QVQLVESGGGLVQAGGSLRLSCAASGRILYVYAMGRYRQAPGKERELVAAITSGGSTHYADSVKGRFTISRDNAKNTVYLQMNSLKPEDTAVYYCAAYTLRNRGGFNYWGQGTQVTVSS .
**Result** high polyreactivity

**Query** Recall and state the measured polyreactivity (PSR sort gate) for QVQLVESGGGLVQAGGSLRLSCAASGIIFYPNAMGWYRQAPGKERELVAAISWRSGSTYYADSVKGRFTISRDNAKNTVYLQMNSLKPEDTAVYYCAADRRRSYIWRYDYWGQGTQVTVSS .
**Result** low polyreactivity

**Query** Recall and state the measured polyreactivity (PSR sort gate) for QVQLVESGGGLVQAGGSLRLSCAASGSTFYSYAMGWYRQAPGKERELVAAISWRGGSTYYADSVKGRFTISRDNAKNTVYLQMNSLKPEDPEVYYCAAYRGDGYEYWGQGTQVTVSS .
**Result** high polyreactivity

**Query** Recall and state the measured polyreactivity (PSR sort gate) for QVQLVESGGGLVQAGGSLRLSCAASGFIFRYYAMGWYRQAPGKERELVAAISWSGGSTYYADSVKGRFTISRDNAMNTVYLQMNSLKPEDTAVYYCAADRYAILFYAEDYWGQGTQVTVSS .
**Result** low polyreactivity

**Query** Recall and state the measured polyreactivity (PSR sort gate) for QVQLVESGGGLVQAGGSLRLSCAASGRTFSFNGMGWYRQAPGKERELVAAISRRGTSTYYADSVKGRFTISRDNAKNTVYLQMNSLKPEDTAVYYCAARSTYTRREYDYWGQGTQVTVSS .
**Result** high polyreactivity

* * *

Test: yeast display, Sf9 membrane polyspecificity reagent, FACS + sequencing; frameworks hold sequencing errors
measurement-type: polyreactivity (PSR sort gate)

sequence-input	measurement-type	test-value
QVQLVESGGGLVQAGGSLRLTCAASGFTFRSYAMGWYRQAPGKERELVADISIRGGGTYYADSVKGRFTISRDNAKNTVYLQRNSLKPEDTAVYYCAAERYKPFLWPRYDYWGQGTQVTVSS	polyreactivity (PSR sort gate)	low polyreactivity
QVQLVELGGGLVQAGGSLRLSCAASGLTLYYYAMGWYRQEPGKERELVAAINRGGSTYYADSVKGRFTISRDNAKNTVYLQMNSLKPEATAVYYCAVDYGVRDLTYYYWGQGTQVTVSS	polyreactivity (PSR sort gate)	low polyreactivity

Provenance of the data: the nanobody polyreactivity screen of Harvey et al. (2022)
